B1: FCHO1 (parent)
chain: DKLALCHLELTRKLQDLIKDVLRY

variants of: B1; test: protein stability index of a GFP-peptide fusion (GPS, HEK-293T) (PSI 1-6); higher = more stable; settings: c terminus: a fixed tail appended;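 note: lentivirally expressed fusions sorted by FACS into six bins by GFP to DsRed ratio, PSI derived from sequencing read proportions per bin multiplied by bin number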
attribute measured: protein stability index
Response field accepts a number only; no unit should be typed.

Bench note: what protein stability index did C6W show? 2.01

Now give it for L14K too. 1.95

Now give it for K2T too. 1.97

Now give it for Q15V too. 1.95

Now give it for T11Y too. 2.57

Now give it for L14F too. 1.12

Now give it for Y24N too. 2.43

Now give it for R12D too. 2.92

Now give it for R12P too. 1.53

Now give it for I18Y too. 2.52

Now give it for C6E too. 2.04

Now give it for D16Y too. 2.42

Now give it for K2N too. 1.26

All values here come from the supplement of paper PMC10567573.
